target: human GLP-1 receptor (human, UniProt P43220 24-463); assay: cell-based or functional assay
Numbered stars: 1 amine (or outer) side, 2 acyl side, 3 side chain; on linkers, the order of the positions; unused ones are H or OH. Side chains are listed from the residue outwards. Ends that are not written are not given here. * marks the point of attachment. Decanoyl(10-(4-HOOC-PhO)) = O=C(O)c1ccc(OCCCCCCCCCC(=O)*)cc1; d(γGlu) = O=C(O)[C@@H](CCC(=O)[*:2])N[*:1]; γGlu = O=C(O)[C@H](CCC(=O)[*:2])N[*:1]; AEEA = NCCOCCOCC(=O)O
READOUT NAME: EC50/pM (in vitro potency, cAMP formation, AlphaScreen)

Answered cases to consult:
>  <BINDER>
HAEGTFTSDVSSYLEGQAAHK([AEEA-AEEA-γGlu-Decanoyl(10-(4-HOOC-PhO))])FIEWLVRGK([AEEA-AEEA-γGlu-Decanoyl(10-(4-HOOC-PhO))])GE (also called 10)

>  <OBS VALUE>
214 pM

$$$$
>  <BINDER>
HAEGTFTSDVSSYLEGQAVRK([γGlu-AEEA-AEEA-d(γGlu)-Decanoyl(10-(4-HOOC-PhO))])FIAWLVQGK([γGlu-AEEA-AEEA-d(γGlu)-Decanoyl(10-(4-HOOC-PhO))])G (also called 26)

>  <OBS VALUE>
200 pM

$$$$
>  <BINDER>
HAEGTFTSDVSSYLEEQAARK([AEEA-AEEA-γGlu-Decanoyl(10-(4-HOOC-PhO))])FIAWLVRGK([AEEA-AEEA-γGlu-Decanoyl(10-(4-HOOC-PhO))]) (ends and bridges not checked)

>  <OBS VALUE>
62 pM

$$$$

# input for lookup
Which value of EC50/pM (in vitro potency, cAMP formation, AlphaScreen) has been reported for HAEGTFTSDVSSYLEEQAVRK([AEEA-AEEA-γGlu-Decanoyl(10-(4-HOOC-PhO))])FIAWLVRGRK([AEEA-AEEA-γGlu-Decanoyl(10-(4-HOOC-PhO))]) in the records?
143 pM
